Overview of reported fraction unbound at 5 h, 1 µM across a group of compounds:
test: Fraction unbound in mouse plasma at 1000 nM after 5 hrs by LC-MS/MS analysis; format: ADME, cell-free
READOUT NAME: fraction unbound at 5 h, 1 µM

{"SAMPLE SMILES": "CCOC(=O)C1=C(CN2CCOC[C@H]2C(=O)O)NC(c2nccs2)=N[C@H]1c1cccc(F)c1Cl", "VALUE REPORTED": 0.022}
{"SAMPLE SMILES": "COC(=O)C1=C(CN2CCOC[C@H]2C(=O)O)N=C(c2nccs2)N[C@H]1c1ccc(F)cc1Cl", "VALUE REPORTED": 0.074}
{"SAMPLE SMILES": "COC(=O)C1=C(CN2CCOC[C@H]2C(=O)O)NC(c2nccs2)=N[C@H]1c1ccc(F)c(F)c1C", "VALUE REPORTED": 0.062}

* * *

Overview of reported pKa across a group of compounds:
assay: Acid ionization constant, pKa of the compound; type: physicochemical

{"SAMPLE SMILES": "COC(=O)C1=C(CN2CCOC[C@H]2C(=O)O)NC(c2nccs2)=N[C@H]1c1ccc(F)c(F)c1C", "pKa": "< 2.5"}
{"SAMPLE SMILES": "CCOC(=O)C1=C(CN2CCOC[C@H]2C(=O)O)NC(c2nccs2)=N[C@H]1c1cccc(F)c1Cl", "pKa": 1.8}
{"SAMPLE SMILES": "COC(=O)C1=C(CN2CCOC[C@H]2C(=O)O)N=C(c2nccs2)N[C@H]1c1ccc(F)cc1Cl", "pKa": 1.8}

* * *

system: Hepatitis B virus; experiment: Antiviral activity against HBV infected in human HepG2(2.2.15) cells assessed as decrease in HBV genome replication after 5 days by qPCR method; type: functional, cell-based; details: HepG2 2.2.15, 120 h
Rule: EC50 below 0.01 µM gives condition met, anything at or above gives condition not met.

{"COMPOUND": "COC(=O)C1=C(CN2CCOC[C@H]2C(=O)O)NC(c2ncco2)=N[C@H]1c1ccc(F)cc1Cl", "CLASS LABEL": "condition not met"}
{"COMPOUND": "COC(=O)C1=C(CN2CCOC[C@H]2C(=O)O)NC(c2nc(C3CC3)cs2)=N[C@H]1c1ccc(F)cc1Cl", "CLASS LABEL": "condition not met"}
{"COMPOUND": "COC(=O)C1=C(CN2CCOC[C@H]2C(=O)O)NC(c2nccs2)=N[C@H]1c1ccc(F)cc1Br", "CLASS LABEL": "condition met"}
{"COMPOUND": "COC(=O)C1=C(CN2CCOC[C@H]2C(=O)O)NC(c2ncoc2C)=N[C@H]1c1ccc(F)cc1Cl", "CLASS LABEL": "condition not met"}
{"COMPOUND": "COC(=O)C1=C(C)NC(c2nc(C(=O)O)cs2)=NC1c1ccc(F)cc1Cl (stereo not given)", "CLASS LABEL": "condition not met"}
{"COMPOUND": "CCOC(=O)C1=C(CN2CCOC[C@H]2C(=O)O)NC(c2nccs2)=N[C@H]1c1ccc(F)c(F)c1C", "CLASS LABEL": "condition met"}
{"COMPOUND": "COC(=O)C1=C(CN2CCOC[C@H]2CCC(=O)O)NC(c2nccs2)=N[C@H]1c1ccc(F)cc1Cl", "CLASS LABEL": "condition not met"}
{"COMPOUND": "CCOC(=O)C1=C(CN2CCOC[C@H]2C(=O)O)NC(c2nccs2)=N[C@H]1c1cccc(F)c1Br", "CLASS LABEL": "condition met"}
{"COMPOUND": "CCNC(=O)C1=C(CN2CCOC[C@H]2C(=O)O)NC(c2nccs2)=N[C@H]1c1ccc(F)cc1Cl", "CLASS LABEL": "condition not met"}

* * *

Overview of reported CC50 at 120 h across a group of compounds:
assay: Cytotoxicity against HBV infected human HepDE19 cells assessed as decrease in cell viability after 5 days by CCK8 assay; format: cell-based

{"SAMPLE SMILES": "COC(=O)C1=C(CN2CCOC[C@H]2C(=O)O)NC(c2nc(C(F)(F)F)cs2)=N[C@H]1c1ccc(F)cc1Cl", "CC50 at 120 h": "> 100 µM"}
{"SAMPLE SMILES": "COC(=O)C1=C(CN2CCOC[C@H]2C(=O)O)NC(c2nccs2)=N[C@H]1c1ccc(C(F)(F)F)cc1Cl", "CC50 at 120 h": "50 µM"}
{"SAMPLE SMILES": "COC(=O)C1=C(CN2CCOC[C@H]2C(=O)O)NC(c2ncc(F)cc2F)=N[C@H]1c1ccc(F)cc1Cl", "CC50 at 120 h": "23 µM"}
{"SAMPLE SMILES": "COC(=O)C1=C(CN2CCOC[C@H]2CC(=O)O)NC(c2nccs2)=N[C@H]1c1ccc(F)cc1Cl", "CC50 at 120 h": "> 100 µM"}
{"SAMPLE SMILES": "CCOC(=O)C1=C(CN2CCOC[C@H]2C(=O)O)NC(c2nccs2)=N[C@H]1c1cccc(F)c1Cl", "CC50 at 120 h": "> 100 µM"}
{"SAMPLE SMILES": "COC(=O)C1=C(CN2CCOC[C@H]2C(=O)O)NC(c2nccs2)=N[C@H]1c1ccc(F)cc1C(F)(F)F", "CC50 at 120 h": "> 100 µM"}
{"SAMPLE SMILES": "COC(=O)C1=C(CN2CCOC[C@H]2C(=O)O)NC(c2ncoc2C)=N[C@H]1c1ccc(F)cc1Cl", "CC50 at 120 h": "> 100 µM"}
{"SAMPLE SMILES": "CCOC(=O)C1=C(CN2CCOC[C@H]2C(=O)O)NC(c2nccs2)=N[C@H]1c1cccc(F)c1Br", "CC50 at 120 h": "95 µM"}
{"SAMPLE SMILES": "COCCOC(=O)C1=C(CN2CCOC[C@H]2C(=O)O)NC(c2nccs2)=N[C@H]1c1ccc(F)cc1Cl", "CC50 at 120 h": "> 100 µM"}
{"SAMPLE SMILES": "COC(=O)C1=C(CN2CCOC[C@H]2CCC(=O)O)NC(c2nccs2)=N[C@H]1c1ccc(F)cc1Cl", "CC50 at 120 h": "> 100 µM"}
{"SAMPLE SMILES": "O=C(OCC(F)(F)F)C1=C(CN2CCOC[C@H]2C(=O)O)NC(c2nccs2)=N[C@H]1c1ccc(F)cc1Cl", "CC50 at 120 h": "27 µM"}
{"SAMPLE SMILES": "CCOC(=O)C1=C(CN2CCOC[C@H]2C(=O)O)NC(c2nccs2)=N[C@H]1c1ccc(F)cc1C", "CC50 at 120 h": "> 100 µM"}
{"SAMPLE SMILES": "COC(=O)C1=C(CN2CCOC[C@H]2C(=O)O)NC(c2ncco2)=N[C@H]1c1ccc(F)cc1Cl", "CC50 at 120 h": "> 100 µM"}
{"SAMPLE SMILES": "CCOC(=O)C1=C(CN2CCOC[C@H]2C(=O)O)NC(c2nccs2)=N[C@H]1c1ccccc1Cl", "CC50 at 120 h": "> 100 µM"}
{"SAMPLE SMILES": "COC(=O)C1=C(CN2CCOC[C@@]2(C)C(=O)O)NC(c2nccs2)=N[C@H]1c1ccc(F)cc1Cl", "CC50 at 120 h": "> 100 µM"}
{"SAMPLE SMILES": "COC(=O)C1=C(CN2CCOC[C@H]2C(=O)O)NC(c2nccs2)=N[C@H]1c1ccc(F)c(F)c1Cl", "CC50 at 120 h": "> 100 µM"}
{"SAMPLE SMILES": "COC(=O)C1=C(CN2CCOC[C@H]2C(=O)O)NC(c2nccs2)=N[C@H]1c1ccc(C)cc1Cl", "CC50 at 120 h": "> 100 µM"}

* * *

Overview of reported bioavailability across a group of compounds:
experiment: Oral bioavailability in mouse at 3 mg/kg, by LC-MS/MS analysis; type: ADME, organism-based; details: in vivo
READOUT NAME: bioavailability (%)

{"SAMPLE SMILES": "CCOC(=O)C1=C(CN2CCOC[C@H]2C(=O)O)NC(c2nccs2)=N[C@H]1c1cccc(F)c1Cl", "READOUT NAME": "bioavailability", "DISPLAY UNIT": "%", "VALUE REPORTED": 82}
{"SAMPLE SMILES": "COC(=O)C1=C(CN2CCOC[C@H]2C(=O)O)NC(c2nccs2)=N[C@H]1c1ccc(F)c(F)c1C", "READOUT NAME": "bioavailability", "DISPLAY UNIT": "%", "VALUE REPORTED": 30}

* * *

assay: AUC (0 to infinity) in mouse at 1 mg/kg, iv by LC-MS/MS analysis; type: ADME, organism-based; parameters: dose 1 mg/kg, time infinity, route intravenous; details: in vivo
Overview of reported AUC(0-inf) across a group of compounds:
READOUT NAME: AUC(0-inf)

{"SAMPLE SMILES": "CCOC(=O)C1=C(CN2CCOC[C@H]2C(=O)O)NC(c2nccs2)=N[C@H]1c1cccc(F)c1Cl", "READOUT NAME": "AUC(0-inf)", "VALUE REPORTED": "253 ng·h/mL"}
{"SAMPLE SMILES": "COC(=O)C1=C(CN2CCOC[C@H]2C(=O)O)NC(c2nccs2)=N[C@H]1c1ccc(F)c(F)c1C", "READOUT NAME": "AUC(0-inf)", "VALUE REPORTED": "379 ng·h/mL"}
